Value source: the RNAGym collection of RNA variant scans (doi:10.7554/elife.90254)

B1: OR4K15 (parent)
chain: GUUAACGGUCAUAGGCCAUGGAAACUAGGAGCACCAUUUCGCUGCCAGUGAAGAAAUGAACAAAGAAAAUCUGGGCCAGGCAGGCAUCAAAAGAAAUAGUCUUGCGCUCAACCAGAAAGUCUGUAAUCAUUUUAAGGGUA

# Variants of: B1
# run.description: self-cleavage, relative activity (ratio to wild type); higher = more cleavage; in vitro, sequencing; the parent is a self-cleaving ribozyme
Label rule, in plain words: self-cleavage of 1 and up is satisfied, under 1 is not satisfied.

Qu. Would you say A91G A110U shows self-cleavage at minimum 1?
Ans. not satisfied

Qu. Would you say C88U A129G shows self-cleavage at minimum 1?
Ans. satisfied

Qu. Would you say U26C A67G shows self-cleavage at minimum 1?
Ans. satisfied

Qu. Would you say A47U U122C shows self-cleavage at minimum 1?
Ans. not satisfied

Qu. Would you say A68G U120C shows self-cleavage at minimum 1?
Ans. not satisfied

Qu. Would you say U70A A90G shows self-cleavage at minimum 1?
Ans. satisfied

Qu. Would you say U19A A114U shows self-cleavage at minimum 1?
Ans. not satisfied

Qu. Would you say A125U A134G shows self-cleavage at minimum 1?
Ans. satisfied

Qu. Would you say A95G A140G shows self-cleavage at minimum 1?
Ans. satisfied

Qu. Would you say A33G A98U shows self-cleavage at minimum 1?
Ans. satisfied

Qu. Would you say A5G U132A shows self-cleavage at minimum 1?
Ans. not satisfied

Qu. Would you say A11U A60G shows self-cleavage at minimum 1?
Ans. satisfied

Qu. Would you say G41A U87A shows self-cleavage at minimum 1?
Ans. satisfied

Qu. Would you say U70A A110G shows self-cleavage at minimum 1?
Ans. not satisfied

Qu. Would you say A24U A33G shows self-cleavage at minimum 1?
Ans. satisfied

Qu. Would you say A64G A111U shows self-cleavage at minimum 1?
Ans. not satisfied

Qu. Would you say A51U U132C shows self-cleavage at minimum 1?
Ans. satisfied

Qu. Would you say U100A G123A shows self-cleavage at minimum 1?
Ans. not satisfied

Qu. Would you say A24G A134G shows self-cleavage at minimum 1?
Ans. not satisfied

Qu. Would you say U43C G138A shows self-cleavage at minimum 1?
Ans. satisfied

Qu. Would you say A24C C40A shows self-cleavage at minimum 1?
Ans. satisfied

Qu. Would you say U39A A126C shows self-cleavage at minimum 1?
Ans. not satisfied

Qu. Would you say G20A shows self-cleavage at minimum 1?
Ans. satisfied

Qu. Would you say G73A C121G shows self-cleavage at minimum 1?
Ans. not satisfied

Qu. Would you say U26C A68G shows self-cleavage at minimum 1?
Ans. satisfied

Qu. Would you say A69G U139A shows self-cleavage at minimum 1?
Ans. satisfied

Qu. Would you say G7A A110G shows self-cleavage at minimum 1?
Ans. not satisfied

Qu. Would you say A89G A96U shows self-cleavage at minimum 1?
Ans. satisfied

Qu. Would you say A62G A63G shows self-cleavage at minimum 1?
Ans. satisfied

Qu. Would you say A4G A69U shows self-cleavage at minimum 1?
Ans. satisfied

Qu. Would you say A30G A91U shows self-cleavage at minimum 1?
Ans. satisfied

Qu. Would you say A56G U139A shows self-cleavage at minimum 1?
Ans. satisfied

Qu. Would you say A52G U139G shows self-cleavage at minimum 1?
Ans. satisfied

Qu. Would you say A117G U130A shows self-cleavage at minimum 1?
Ans. not satisfied

Qu. Would you say U108C C128U shows self-cleavage at minimum 1?
Ans. not satisfied

Qu. Would you say A52G U132C shows self-cleavage at minimum 1?
Ans. satisfied

Qu. Would you say A55U U102A shows self-cleavage at minimum 1?
Ans. satisfied

Qu. Would you say U39C U57C shows self-cleavage at minimum 1?
Ans. satisfied

Qu. Would you say U87G A117G shows self-cleavage at minimum 1?
Ans. not satisfied

Qu. Would you say A59U A125G shows self-cleavage at minimum 1?
Ans. not satisfied

Qu. Would you say A13G U100C shows self-cleavage at minimum 1?
Ans. satisfied

Qu. Would you say A11U U72A shows self-cleavage at minimum 1?
Ans. not satisfied

Qu. Would you say U12C A60G shows self-cleavage at minimum 1?
Ans. satisfied

Qu. Would you say A33G U132C shows self-cleavage at minimum 1?
Ans. not satisfied

Qu. Would you say A23U A86U shows self-cleavage at minimum 1?
Ans. satisfied

Qu. Would you say U37C U103G shows self-cleavage at minimum 1?
Ans. not satisfied

Qu. Would you say A13G C77U shows self-cleavage at minimum 1?
Ans. satisfied

Qu. Would you say U37C C76U shows self-cleavage at minimum 1?
Ans. not satisfied

Qu. Would you say A64U A111G shows self-cleavage at minimum 1?
Ans. not satisfied

Qu. Would you say C6G U100C shows self-cleavage at minimum 1?
Ans. not satisfied

Qu. Would you say U9C U131C shows self-cleavage at minimum 1?
Ans. satisfied

Qu. Would you say A96G U100A shows self-cleavage at minimum 1?
Ans. not satisfied

Qu. Would you say C17U A89G shows self-cleavage at minimum 1?
Ans. satisfied

Qu. Would you say A69U G136A shows self-cleavage at minimum 1?
Ans. satisfied

Qu. Would you say A129G A140U shows self-cleavage at minimum 1?
Ans. satisfied

Qu. Would you say G31U U102A shows self-cleavage at minimum 1?
Ans. satisfied

Qu. Would you say A24U U26C shows self-cleavage at minimum 1?
Ans. satisfied

Qu. Would you say G7U U57C shows self-cleavage at minimum 1?
Ans. satisfied

Qu. Would you say A13C U127C shows self-cleavage at minimum 1?
Ans. not satisfied

Qu. Would you say A94G C113U shows self-cleavage at minimum 1?
Ans. not satisfied

Qu. Would you say A78G A98C shows self-cleavage at minimum 1?
Ans. not satisfied

Qu. Would you say U43C A125G shows self-cleavage at minimum 1?
Ans. not satisfied

Qu. Would you say U37C A69G shows self-cleavage at minimum 1?
Ans. satisfied

Qu. Would you say A27U A63G shows self-cleavage at minimum 1?
Ans. satisfied

Qu. Would you say A11U A111U shows self-cleavage at minimum 1?
Ans. not satisfied

Qu. Would you say A4U U57A shows self-cleavage at minimum 1?
Ans. satisfied

Qu. Would you say U9C U139C shows self-cleavage at minimum 1?
Ans. satisfied

Qu. Would you say A11G A111G shows self-cleavage at minimum 1?
Ans. not satisfied

Qu. Would you say G41A A62G shows self-cleavage at minimum 1?
Ans. satisfied

Qu. Would you say U43A U120C shows self-cleavage at minimum 1?
Ans. not satisfied

Qu. Would you say U12C A126G shows self-cleavage at minimum 1?
Ans. not satisfied

Qu. Would you say U102C U124A shows self-cleavage at minimum 1?
Ans. not satisfied

Qu. Would you say U37C A92U shows self-cleavage at minimum 1?
Ans. satisfied

Qu. Would you say A64G A89C shows self-cleavage at minimum 1?
Ans. not satisfied

Qu. Would you say A23G A118U shows self-cleavage at minimum 1?
Ans. not satisfied

Qu. Would you say A51G A59U shows self-cleavage at minimum 1?
Ans. satisfied

Qu. Would you say U97A U127C shows self-cleavage at minimum 1?
Ans. satisfied

Qu. Would you say C85A U100C shows self-cleavage at minimum 1?
Ans. not satisfied

Qu. Would you say U9C A92G shows self-cleavage at minimum 1?
Ans. not satisfied

Qu. Would you say A5U shows self-cleavage at minimum 1?
Ans. satisfied

Qu. Would you say U19C A33G shows self-cleavage at minimum 1?
Ans. not satisfied

Qu. Would you say A95G A114G shows self-cleavage at minimum 1?
Ans. satisfied

Qu. Would you say A13G U132C shows self-cleavage at minimum 1?
Ans. not satisfied

Qu. Would you say A55G A110C shows self-cleavage at minimum 1?
Ans. not satisfied

Qu. Would you say U43G A111G shows self-cleavage at minimum 1?
Ans. not satisfied

Qu. Would you say U43A A96G shows self-cleavage at minimum 1?
Ans. satisfied

Qu. Would you say G21A A64U shows self-cleavage at minimum 1?
Ans. satisfied
